- Target Desc: PIM3 (Homo sapiens)
- Assay Summary: Pim 3 AlphaScreen assay (high ATP)
- Assay type: biochemical
- Condition Info: read-out: Pim3 IC50
// NB: equality with 20 nM counts as label 0; only IC50 strictly below is label 1

C[C@]1(O)[C@H](O)C[C@H](c2ccncc2NC(=O)c2ccc(F)c(-c3c(F)cccc3F)n2)O[C@@H]1C1CC1 [Example 247]: label 0
Nc1cc(F)c(-c2c(F)cccc2F)nc1C(=O)Nc1cnccc1[C@H]1C[C@@H](N)[C@@]2(O)CCC[C@H]2O1 [Example 216]: label 1
O=C(Nc1cnccc1[C@H]1C[C@@H](O)[C@H](O)C2(CC2)O1)c1ccc(F)c(-c2c(F)cccc2F)n1 [Example 253]: label 1
N[C@@H]1C[C@H](c2ccncc2NC(=O)c2ccnc(-c3c(F)cccc3F)n2)O[C@@H]2CCCC[C@]12O [Example 237]: label 0

// switching to the query compound
Determine if COc1ccc(F)c(-c2nc(C(=O)Nc3cnccc3[C@H]3C[C@@H](N)[C@](C)(O)[C@@H](C)O3)ccc2F)c1F [Example 244] shows IC50 strictly lower than 20 nM.
label 1

====

Consider the following compounds; for each one, report its pIC50.
- Target Desc: PKCα (Homo sapiens, UniProt P17252)
- Assay Summary: PKCα kinase Caliper assay
- Assay type: biochemical
- Condition Info: PKCα Caliper assay; read-out: PKC IC50
Give bare numbers, as −log10 of the molar value.

# count of solved cases: 5
C[C@H]1O[C@@H](c2ccncc2NC(=O)c2nc(-c3ccccc3)cnc2N)C[C@@H](N)[C@]1(C)O [Example 228]: 7.12
CC(C)(C)[C@@H]1O[C@H](c2ccncc2NC(=O)c2nc(-c3ccccc3)cnc2N)C[C@H](N)[C@H]1O [Example 355]: 6.08
CC(C)[C@@H]1C[C@H](N)C[C@H](c2ccncc2NC(=O)c2nc(-c3ccccc3)cnc2N)O1 [Example 291]: 7.37
C[C@@]1(O)[C@@H](N)C[C@@H](c2ccncc2NC(=O)c2nc(-c3ccccc3)cnc2N)O[C@H]1C1CC1 [Example 347]: 6.00
CC(C)[C@H]1C[C@@H](N)C[C@@H](c2ccncc2NC(=O)c2nc(-c3ccccc3)cnc2N)O1 [Example 292]: 7.00

Now, please, on to the next compound.
Notebook entry, PKCα (Homo sapiens, UniProt P17252) assay: pIC50 of Nc1ncc(-c2ccccc2)nc1C(=O)Nc1cnccc1[C@@H]1C[C@H](N)[C@@H]2CCC[C@@H]2O1 [Example 233] = ?
6.26

====

- Target Desc: GSK3β (Homo sapiens, UniProt P49841)
- Sequence (P49841 whole entry, species assumed): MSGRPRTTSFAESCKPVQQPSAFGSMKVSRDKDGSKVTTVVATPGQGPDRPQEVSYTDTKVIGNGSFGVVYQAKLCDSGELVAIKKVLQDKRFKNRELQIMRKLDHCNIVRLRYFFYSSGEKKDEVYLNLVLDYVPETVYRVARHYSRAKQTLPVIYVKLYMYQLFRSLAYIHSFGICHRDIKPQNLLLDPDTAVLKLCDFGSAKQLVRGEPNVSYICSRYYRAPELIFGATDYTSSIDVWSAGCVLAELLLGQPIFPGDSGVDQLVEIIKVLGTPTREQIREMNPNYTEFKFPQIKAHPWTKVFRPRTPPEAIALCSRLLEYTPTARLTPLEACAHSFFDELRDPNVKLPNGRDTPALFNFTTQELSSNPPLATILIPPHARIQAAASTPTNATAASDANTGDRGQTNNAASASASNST
- Assay Summary: GSK3β ATP depletion assay
- Format: biochemical
- Condition Info: read-out: GSK3b IC50
Can you tell me pIC50 for the items I'm about to list?
Numbers only, as −log10 of the molar value.

// solved cases for pIC50 follow
N#CC[C@H]1O[C@@H](c2ccncc2NC(=O)c2nc(-c3c(F)cccc3F)c(F)cc2N)C[C@@H](O)[C@@H]1O [Example 139]: 6.35
C[C@H]1O[C@@H](c2ccncc2NC(=O)c2ccc(F)c(-c3c(F)cccc3F)n2)C[C@@H](O)[C@@]1(O)CO [Example 20]: 5.59
Nc1cnc(-c2c(F)cccc2F)nc1C(=O)Nc1cnccc1[C@@H]1C[C@H](O)[C@@H](O)[C@H](C2CC2)O1 [Example 205]: 5.73
C[C@@H]1C[C@H](O)C[C@H](c2ccncc2NC(=O)c2ccc(F)c(-c3c(F)cccc3F)n2)O1 (stereo in doubt) [Example 126]: 6.26

Please examine the following record next.
Tell me reported pIC50 for O=C(Nc1cnccc1[C@H]1C[C@@H](O)[C@@]2(O)CCC[C@H]2O1)c1cccn(-c2ccccc2)c1=O [Example 194] , tested with GSK3β (Homo sapiens, UniProt P49841).
4.88

Ref: patent US20130109682A1
